meta.source: the supplement of paper PMC9170038

Test system: MS2 coat protein
method_description: apparent KD of MS2 coat protein; designed switch direction (-1 OFF switch, 1 ON switch): 1; higher = weaker reporter binding
settings: Eterna round: R95; input ligand: microRNA oligo, concentration not stated
Tag: Satisfied if measured apparent KD of MS2 coat protein is not below 40 nM, Not satisfied if it is.

- sequence_content: "AUUAAACAUGAGGAUCACCCAUGUCAACAAAGUCGAGGAUAUGGGCAAAUAAAAUAUGAACCAGAAGGCGAAUAAU [salish99_ss1_r3_064] (puzzle: Same State 1)"
  assay_system: "MS2 coat protein"
  class_assignment: "Satisfied"
- sequence_content: "GACAAUCUAUCUGAGGAUAUCAUGAAGAAAACAUGAGGAUCACCCAUGUGCAGGAUAACUGCAAAUGAGAAGGCAGAUAGAUUGG [Mat - Same State 2 - Mod - D3] (puzzle: Same State 2)"
  assay_system: "MS2 coat protein"
  class_assignment: "Not satisfied"
- sequence_content: "GGGCAGAGGGACAAGGAUAUGUCAGGAGAGACAUGAGGAUCACCCAUGUGGAGGUUGGAGCAGAGACAGAAGGUGUACGGAGCGA [JR_SS2_Sub011] (puzzle: Same State 2)"
  assay_system: "MS2 coat protein"
  class_assignment: "Satisfied"
- sequence_content: "AGCGCGGUCUCGCAGGAUAUCCACAUUCCUACAUGAGGAUCACCCAUGUCGCUGCAGGAUAUUAGGGAGAAGGGUGAUGCCGCGG [Quesed] (puzzle: Same State 2)"
  assay_system: "MS2 coat protein"
  class_assignment: "Satisfied"
- sequence_content: "UUGGUGUAGAUACAGGAUAUGUUGCUUGUAACAUGAGGAUCACCCAUGUAUCUAUGAGAUUAAAUGCAGAAGGGUGCACAUCACU [salish99_ss2_r3_089] (puzzle: Same State 2)"
  assay_system: "MS2 coat protein"
  class_assignment: "Satisfied"

----------
Catalogue of apparent KD of MS2 coat protein readings, one per entry.
Tested on: MS2 coat protein
method_description: apparent KD of MS2 coat protein; designed switch direction (-1 OFF switch, 1 ON switch): -1; higher = weaker reporter binding
settings: input ligand: none

- sequence_content: "CUCACGCUCGAGGAUAUCGCACAAAACAAUCAACGAGAAGGCGAGACAUGAGGAUCACCCAUGUGUGGUCAAGA [Ceceed] (Eterna round: R97, puzzle: Exclusion 6)"
  output_unit: "nM"
  apparent KD of MS2 coat protein: 590
- sequence_content: "AAAGAUCAAGGAUAUGCAACGGCACACAUGAGGAUCACCCAUGUGAUGUACGUUGUGUCGGCAGAAGGUGAGGGUC [JR_Ex5_Sub056] (Eterna round: R97, puzzle: Exclusion 5)"
  output_unit: "nM"
  apparent KD of MS2 coat protein: 14.3
- sequence_content: "UUAAUUAGCAGACUAAUACCUCACAUGAGGAUCACCCAUGUGCAGGAUAUCAGCUCGUGUAGAGCUGAGAAGGGCACUGUCUGC [ExNG3/12-A3] (Eterna round: R96, puzzle: Exclusion NG 3)"
  output_unit: "nM"
  apparent KD of MS2 coat protein: 10.8

----------
System: K4 kissing-loop RNA reporter
method_description: apparent KD of K4 kissing-loop reporter; higher = weaker reporter binding
settings: Eterna round: R107; input ligand: theophylline 20 uM

- sequence_content: "UUGUUUUACUGAAGGAGCGGCAAUUGAUACGUAGAUAUAGUGAUGUUAUAUAAGAUAGAGAGCCAGGUAGGUCGCAGAUGUGUUU [ExArgB.T]"
  apparent KD of K4 kissing-loop reporter [nM]: 204
- sequence_content: "AUGUCUUAUAAACUCAUGGUUUCGACAGAUACCAGCUUCGAGAGGAGCCCUUGGCAGCUGCAUGAGUGAUGUUCAUGUACGAAGA [KL-XTheoA6]"
  apparent KD of K4 kissing-loop reporter [nM]: 315
- sequence_content: "AAAUUUAUAUUAGAUACCAGCAUAUUGAAAGUUUAUUAUGACAAGAGUGAUGUUCUUGUAUGCCCUUGGCAGCUGGUAUGGGUUU [KL-XTheo-B25]"
  apparent KD of K4 kissing-loop reporter [nM]: 110
- sequence_content: "UGUCAUUGGUCUGAUACCAGAAGAAUCUGGAGUGAUGUUCCAAGUCGAUCAAAAGAUCGCUUCCCUUGGCAGCAGACCGAUGACU [TheoBS 24 #SwitchBubble 13 #StaticStem]"
  apparent KD of K4 kissing-loop reporter [nM]: 188
- sequence_content: "AGCUAGUGAAACUAGUUUAAACUAGGUGAAGGAGCGAUCGAAAGAUCAGGUAGGUCGCACCUAACUGAGUGAUGUUCAGGAAAUA [KL-SSArg-A4]"
  apparent KD of K4 kissing-loop reporter [nM]: 66.7
- sequence_content: "UUAAUAAUUCAAGGAUAUGUUUUUUUUUUCGAGUGAUGUUCGGAAUUAAUAAAUUUAAAAGAUUAUACAGAAGGUGAUAAAUAGU [Cynwulf-mod#1]"
  apparent KD of K4 kissing-loop reporter [nM]: 103

----------
Test system: K4 kissing-loop RNA reporter
method_description: apparent KD of K4 kissing-loop reporter; higher = weaker reporter binding
settings: Eterna round: R107; input ligand: arginine 13.2 mM
Catalogue of apparent KD of K4 kissing-loop reporter readings, one per entry.

- sequence_content: "ACACUUUACGUAGGAUAUGCGACGAGUGAUGUUCGUCAGGCGGCUUUAGAUUAUACAAGCCGCCUAGCAGAAGGACGGGCAGUGU [Araar]"
  apparent KD of K4 kissing-loop reporter [nM]: 157
- sequence_content: "AUGCGUGAUGCUCAAAGAGUAUCACCCGAUACCAGUAUGGAAACAUACCCUUGGCAGCGGGUAACUGCCCAGUGAUGUUGGACGC [Theophylline A K4 10]"
  apparent KD of K4 kissing-loop reporter [nM]: 160
- sequence_content: "CCAAUCAGUUACGAUACCAGUCUAAUAUAUUUGAUCAAAACCCUCGCCGAGUGAUGUUCGGACCCUUGGCAGCGUCUGGGACAGG [fcctmullin]"
  apparent KD of K4 kissing-loop reporter [nM]: 417

----------
Test system: MS2 coat protein
method_description: apparent KD of MS2 coat protein; designed switch direction (-1 OFF switch, 1 ON switch): 1; higher = weaker reporter binding
settings: Eterna round: R95; input ligand: none
assay_metric: apparent KD of MS2 coat protein (µM)

- sequence_content: "AACAAUCUAUCUGAGGAUAUCAUGAAAAAAACAUGAGGAUCACCCAUGUGCAGGAAAACUGCAUAUGAGAAGGCAGAUAGAUUGA [salish99_SS2_r3_001] (puzzle: Same State 2)"
  assay_metric: "apparent KD of MS2 coat protein"
  observed_measurement: 0.741
- sequence_content: "AGUCGAGCCUGAGCUCGACAAAAGCAUGUACAUGAGGAUCACCCAUGUCAUGUACAAGCUUUUUGCUCGUCUUAAAA [Mat - hsa-mir-208a - Mod of JL - D19] (puzzle: Sensor for hsa-mir-208a)"
  assay_metric: "apparent KD of MS2 coat protein"
  observed_measurement: 0.264
- sequence_content: "AGGCAAGCUUUUUGCUGGUAUGAAGGAGAACAUGAGGAUCACCCAUGUAUUAGAGGUGUAGAGGAUUUGAGAAAGAA [JR_SHM208A_Sub003] (puzzle: Sensor for hsa-mir-208a)"
  assay_metric: "apparent KD of MS2 coat protein"
  observed_measurement: 0.134
- sequence_content: "AAUUUUAAACAUGAGGAUCACCCAUGUGUUAUAUAAGCAAAUAAAUAAAUAAAUAAAUAAAUAAAUAAAUAAAUAAA [RNA Sequence] (puzzle: Sensor for hsa-mir-208a version 2)"
  assay_metric: "apparent KD of MS2 coat protein"
  observed_measurement: 0.0445
- sequence_content: "UCUUGGUUUUUGCUCGUUUUUUGUGUUGAACAUGAGGAUCACCCAUGUAUUGUACAAUCCAAUUUAAUAAUGGUCCA [Mod of one of JR's submissions 3] (puzzle: Sensor for hsa-mir-208a)"
  assay_metric: "apparent KD of MS2 coat protein"
  observed_measurement: 0.0478

----------
Tested on: K4 kissing-loop RNA reporter;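 also: bound reporter read as fluorescence of individual clusters on recovered sequencing chips by microscopy, with normalized cluster intensities fitted with a binding model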
method_description: apparent KD of K4 kissing-loop reporter; higher = weaker reporter binding
settings: Eterna round: R107; input ligand: theophylline 20 uM
Catalogue of apparent KD of K4 kissing-loop reporter readings, one per entry.

- sequence_content: "CAUACCCAGUGAUGUUGGGUCGGUACCGAUACCAGUCGUACAGCCGACCCUUGGCAGCGGUAGCAUUGCCCGGCGUCGGCUUGUG [theeternabot_exclusion_KL_Theo_A_17]"
  assay_system: "K4 kissing-loop RNA reporter"
  apparent KD of K4 kissing-loop reporter: "0.445 µM"
- sequence_content: "UAUUUAGUGACGGCCGCCACUAUUGUGAUUUAUUUGUUUGAGUGAUGUUUUGAUGUUUGAUUUUGUAGGACCGGGUUAUGUGUUA [awscmullin]"
  assay_system: "K4 kissing-loop RNA reporter"
  apparent KD of K4 kissing-loop reporter: "0.804 µM"
- sequence_content: "UGUAUGUGAUUUGAUACCAGACCAGCUGGUGGUACCUGAGUGAUGUUCGGGAUGGUUUGGGUCCCUUGGCAGCAAAUCGCAUACU [KL-SSTheoB20]"
  assay_system: "K4 kissing-loop RNA reporter"
  apparent KD of K4 kissing-loop reporter: "0.148 µM"
- sequence_content: "GCAAACCUCAGUGAUGUUGAGUAAUCGGAAGGAGCGCGUGAAAACGCAGGUAGGUCGCCGAUACAUGAAGUAUCUUCGUGUUUGC [Arginine A K4 23]"
  assay_system: "K4 kissing-loop RNA reporter"
  apparent KD of K4 kissing-loop reporter: "0.38 µM"
- sequence_content: "ACGCGCGCGAGUGAUGUUCGGAGCGGCUGGCAGGAUAUGUAGCAAUGCAGAAGGGUCGUGGCGGUGGGCGCGCAAGCGGCUGCCG [#2 Exclusion - FMN A Attempt #12 (HarryS)]"
  assay_system: "K4 kissing-loop RNA reporter"
  apparent KD of K4 kissing-loop reporter: "0.399 µM"
- sequence_content: "GAUGGUGGCAGUGAAGUGAUGUUUCAUGAUACCAGUUUUAUAAGUAACCCUUGGCAGCAUCGUACGCAGCGUAGUGGACAUCACG [theeternabot_exclusion_KL_Theo_A_25]"
  assay_system: "K4 kissing-loop RNA reporter"
  apparent KD of K4 kissing-loop reporter: "0.241 µM"
- sequence_content: "UUGCCCGAUGGAGAUACCAGCAGUUGUGCAGUGAUGUUGCACAAGUACUCGCUCCAUUGCUGCCCUUGGCAGCUCCCGGCGAAAA [Reoraren]"
  assay_system: "K4 kissing-loop RNA reporter"
  apparent KD of K4 kissing-loop reporter: "0.0924 µM"
- sequence_content: "UGACUGGACUGAAGGAGCGCGCGAGACAAAGUCUCGAACUCCUAGUGAUGUUAGGAAAUAACGCAGGUAGGUCGCAGUCUAGUCU [ArgBS 10 #SwitchBubble #StaticStem #DoubleMagnet]"
  assay_system: "K4 kissing-loop RNA reporter"
  apparent KD of K4 kissing-loop reporter: "0.209 µM"
- sequence_content: "AACGACUGGAUGAAUAACAUCUAGUCGAUUCGAGGACCGGUACGGCCGCCACUCGAGCUAACUGCGAGUGAUGUUCGAUAAUAAA [#OpenEnded 3]"
  assay_system: "K4 kissing-loop RNA reporter"
  apparent KD of K4 kissing-loop reporter: "0.524 µM"
- sequence_content: "AGGUGGGACGUAGGAUAUCCCUAAUGAUUUACUUCCUGGUUGCUACGCUUCCAGUGAUGUUGGAAGGGAGAAGGACGGGCGAGUU [Riatbive]"
  assay_system: "K4 kissing-loop RNA reporter"
  apparent KD of K4 kissing-loop reporter: "0.217 µM"
- sequence_content: "AGUUCAGAGUGACUCGAUAAGAGUCACAAACGAGGACCGGUACGGCCGCCACUCGAAAUAACGAGAGUGAUGUUCUCGCUGGGCA [FiskerMod 2 - Jieux - Same State Tryptophan A]"
  assay_system: "K4 kissing-loop RNA reporter"
  apparent KD of K4 kissing-loop reporter: "0.824 µM"
